Reported mean nematode size ln(EXT) (ln) values for a set of compounds
test system: Caenorhabditis elegans N2; test: mean nematode size ln(EXT) after 48 h, plate-adjusted (DMSO control set to 6) (ln(EXT), control-adjusted); higher = larger nematodes / less growth inhibition; details: 0.5 µM; exposure time 48 h
ENDPOINT_NAME: mean nematode size ln(EXT) (ln)

1) CCCCC=O [Pentanal] | 5.98
2) C=C(C)CN(CC)c1c([N+](=O)[O-])cc(C(F)(F)F)cc1[N+](=O)[O-] [Ethalfluralin] | 5.89
3) c1ccc2c(c1)ccc1ccccc12 [Phenanthrene] | 5.95
4) CCCc1cc(=O)[nH]c(=S)[nH]1 [6-Propyl-2-thiouracil] | 5.8
5) O=c1ccc(=O)[nH][nH]1 [Maleic hydrazide] | 6.04
6) N#Cc1cccnc1 [3-Pyridinecarbonitrile] | 5.73
7) NNC(=O)c1ccncc1 [Isoniazid] | 5.78
8) O=C(O)c1ccc([N+](=O)[O-])cc1 [4-Nitrobenzoic acid] | 6
9) CC(C)N(Cc1ccccc1)C(=O)C(C)(C)C [Butam] | 5.94
10) COc1cc(C=O)ccc1O [4-Hydroxy-3-methoxy-benzaldehyde] | 5.83
11) CCN(CC)C(=O)SCc1ccc(Cl)cc1 [Thiobencarb] | 5.97

Data provenance: the supplement of paper PMC4858399
